measured_parameter: melting point

C=C1C[C@@]2(C)C(=CC1=O)CCC1C2CC[C@@]2(C)C1CC[C@@H]2C(=O)NCCc1ccc(OC)c(OC)c1 (stereo partly shown)	74 to 78 °C

*Q* Can you share its melting point? I mean this compound: CCN(CC)C(=O)[C@H]1CCC2C3CCC4=Cc5n[nH]cc5C[C@]4(C)C3CC[C@@]21C (stereo partly shown)
*A* 111 to 118 °C

*Q* Try this compound too: C=C1C[C@@]2(C)C(=CC1=O)CCC1C2CC[C@@]2(C)C1CC[C@@H]2C(=O)N(CC)CC (stereo partly shown)
*A* 98 to 105 °C

*Q* Try this compound too: "C[C@]12CC[C@H]3[C@@H](CCC4=CC(=O)C(=CO)C[C@@]43C)[C@@H]1CC[C@@H]2C(=O)N1CCCCC1"
*A* 105 to 110 °C

*Q* Try this compound too: C=C1C[C@@]2(C)C(=CC1=O)CCC1C2CC[C@@]2(C)C1CC[C@@H]2C(=O)NCC(C)C (stereo partly shown)
*A* 168 to 175 °C

*Q* Try this compound too: COc1ccc(CCNC(=O)[C@H]2CCC3C4CCC5=CC(=O)/C(=C\O)C[C@]5(C)C4CC[C@@]32C)cc1OC (stereo partly shown)
*A* 121 to 129 °C

*Q* Try this compound too: "C=C1C[C@@]2(C)C(=CC1=O)CC[C@H]1[C@@H]3CC[C@H](C(=O)NC4CC4)[C@@]3(C)CC[C@@H]12"
*A* 135 to 142 °C

====

Item-by-item account of inhibition at 1 µM
- system_under_test: 5α-reductase type 2 isozyme (Rattus norvegicus, UniProt P31214)
- Sequence (P31214 whole entry): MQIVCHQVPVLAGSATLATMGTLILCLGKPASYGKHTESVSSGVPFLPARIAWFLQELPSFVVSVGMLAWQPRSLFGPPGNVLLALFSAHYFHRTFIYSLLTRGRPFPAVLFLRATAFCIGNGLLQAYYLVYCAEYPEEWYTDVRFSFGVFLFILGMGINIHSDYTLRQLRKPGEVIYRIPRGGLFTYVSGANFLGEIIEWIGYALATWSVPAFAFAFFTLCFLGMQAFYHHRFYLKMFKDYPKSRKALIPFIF
- protocol_text: Enzyme inhibition test, 5α-reductase type 2 (pH 5.5)
- Assay type: biochemical
- assay_conditions: 1 μM compound, pH 5.5, rat liver enzyme preparation; read-out: Type 2 (pH 5.5) Inh% (1μM)
Quick note: number first, unit second.

*Q* Can you share its inhibition at 1 µM? I mean this molecule: CC(C)CNC(=O)[C@H]1CCC2C3CCC4=Cc5n[nH]cc5C[C@]4(C)C3CC[C@@]21C (stereo partly shown)
*A* 48.7%

*Q* Try this molecule too: "C[C@]12CC[C@H]3[C@@H](CCC4=CC(=O)C(=CO)C[C@@]43C)[C@@H]1CC[C@@H]2C(=O)N1CCCCC1"
*A* 49.9%

*Q* Try this molecule too: "C=C1C[C@@]2(C)C(=CC1=O)CC[C@H]1[C@@H]3CC[C@H](C(=O)N4CCCCC4)[C@@]3(C)CC[C@@H]12"
*A* 21.2%

*Q* Try this molecule too: C[C@]12Cc3c[nH]nc3C=C1CCC1C2CC[C@@]2(C)C1CC[C@@H]2C(=O)N1CCCCC1 (stereo partly shown)
*A* 49.6%
